Target: T1, XtrLin28b CSD F77A (Xenopus tropicalis, UniProt B4F6I0 27-114, F77A)
T1 sequence: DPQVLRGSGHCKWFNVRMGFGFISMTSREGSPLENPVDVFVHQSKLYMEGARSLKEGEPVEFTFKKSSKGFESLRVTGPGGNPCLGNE
Test: ITC
Measurement name: Kd (µM)

[[record]]
binder = "GUCACACC (ssRNA) [rlet-7f5]"
measurement_units = "µM"
reported_value = 1.18

